- testedSystem: AP2 α-appendage appendage (Mus musculus, UniProt P17427)
- Sequence (P17427 701-938): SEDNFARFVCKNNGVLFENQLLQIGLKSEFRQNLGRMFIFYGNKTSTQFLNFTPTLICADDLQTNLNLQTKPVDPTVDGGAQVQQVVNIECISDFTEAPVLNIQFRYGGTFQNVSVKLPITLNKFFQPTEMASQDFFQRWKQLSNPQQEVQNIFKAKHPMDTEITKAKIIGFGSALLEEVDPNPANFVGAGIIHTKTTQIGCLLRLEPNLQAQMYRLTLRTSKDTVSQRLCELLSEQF
- assayProcedure: ITC
pKd: −log10 of the molar value.
quantity: pKd

In [3]: df
Out[3]:
                                     binder  observedresult
0  SFFEDNFVPEIS [amphiphysin DNF 12mer peptide]            5.60
